- PROCEDURE_TEXT: Inhibition of HCV genotype 1b NS5A infected in HuH-7-Luc/Neo-ET cells assessed as reduction in viral replication measured by Luciferase reporter gene assay
MEASUREMENT_LABEL: EC50 (nM)
Number in nM, nothing else.

Known results for molecules:
COC(=O)N[C@H]1CCC[C@H]2CC[C@@H](c3ncc(-c4ccc(-c5ccc(-c6cnc([C@@H]7CCCN7C(=O)[C@@H](NC(=O)OC)C(C)C)[nH]6)cc5)cc4)[nH]3)N2C1=O = 0.109
COC(=O)N[C@H]1CCC[C@H]2CC[C@@H](c3ncc(-c4ccc(-c5ccc(-c6cnc([C@@H]7CC8(CN7C(=O)[C@@H](NC(=O)OC)C(C)C)OCCO8)[nH]6)cc5)cc4)[nH]3)N2C1=O = 0.046
COC(=O)N[C@H](C(=O)N1CCC[C@H]1c1ncc(-c2ccc(-c3ccc(-c4cnc([C@@H]5CC[C@@H]6CCC[C@@H](NC(=O)OC)C(=O)N65)[nH]4)cc3)cc2)[nH]1)C(C)C = 0.133
COC(=O)N[C@H](C(=O)N1CCC[C@H]1c1ncc(-c2ccc(-c3ccc(-c4cnc([C@@H]5CC[C@H]6CCC[C@@H](NC(=O)OC)C(=O)N65)[nH]4)cc3)cc2)[nH]1)C(C)C = 0.059

# lookup: EC50 of COC(=O)N[C@H](C(=O)N1CC2(C[C@H]1c1ncc(-c3ccc(-c4ccc(-c5cnc([C@@H]6CC[C@H]7CCC[C@H](N(C)C)C(=O)N76)[nH]5)cc4)cc3)[nH]1)OCCO2)C(C)C
0.084

Values compiled from BindingDB's records for doi:10.1021/acsmedchemlett.1c00391.
